All values here come from ChEMBL document CHEMBL3988442.

# system-name: Histidine--tRNA ligase (Leishmania infantum)
# experiment-description: Leishmania infantum Histidine tRNA synthetase (LdHisRS)
# Format: functional
# Parameters: scale not given: in the data most compounds retested in dose-response had high values
# details: 30 µM
Screen size: about 69,000 compounds; about 420 (0.61%) showed an effect of 50% or more. Many of the other results were omitted from the sample, so strong results are more common in it than they were.
Percent Effect for assorted compounds
Write the number in % without appending the unit.

Some compounds with known Percent Effect results, for comparison:
CN(C)C(=O)CN1CCCC1c1cccc(Cc2ccccc2F)n1 (stereo unspecified)    55.7
O=C(c1ccoc1)N1C[C@@H]2OCCN(c3ncccn3)[C@@H]2C1    15.3

// moving on: another record for Percent Effect
Query :: Query (compound): Cc1nnsc1CN1C[C@@H]2CC[C@H](C1)N(Cc1ccccc1)C2 ; field requested: Percent Effect
Result :: 8.33

###

Percent Effect for assorted molecules
# system-name: Histidine--tRNA ligase (Leishmania infantum)
# experiment-description: Leishmania infantum Histidine tRNA synthetase (LdHisRS)
# Format: functional
# Design: scale not given: in the data most compounds retested in dose-response had high values
# details: 30 µM
The campaign covered roughly 69,000 compounds. About 420 (0.61%) showed an effect of 50% or more. The sample as a whole holds a higher share of strong results than the screen did.

Some molecules with known Percent Effect results, for comparison:
N#Cc1ccc(C(=O)N2CC[C@H]3[C@H]2CCN3CC2CCOCC2)cc1    -5.77%
CC(C)n1nc2c(cc1=O)CN(CC1CCCCO1)CC2 (stereo unspecified)    35.6%

Query :: Query (molecule): Cc1ncc2c(n1)CN(CC1CCCCO1)CC2 (stereo unspecified) ; field requested: Percent Effect
Result :: 25.7%

Query :: Same read-out for O=C([C@H]1CCS(=O)(=O)[C@@H]2CN(CCc3ccccc3)C[C@H]12)N1CCCC1 ?
Result :: 17.6%

Query :: Same read-out for Cc1cccc(CN2C(=O)CC[C@@H]3[C@H]2CCN3Cc2cccnc2)n1 ?
Result :: 29.4%

Query :: Same read-out for COc1ncccc1CN1C[C@@H]2C[C@@H](C(=O)NCC3CC3)N(C)[C@@H]2C1 ?
Result :: 24.8%

Query :: Same read-out for CCCn1nc2c(cc1=O)CN(CC1CCCCO1)CC2 (stereo unspecified) ?
Result :: 79.5%

Query :: Same read-out for O=C(NCC1CC1)[C@H]1C[C@H]2OCC[C@H]2N(Cc2ccsc2)C1 ?
Result :: 0%

Query :: Same read-out for COc1ccc(C(NCc2ccc(C#N)cc2)C2CC2)cc1 (stereo unspecified) ?
Result :: 29.1%

Query :: Same read-out for CNC(=O)[C@@]12CCO[C@@H]1CCN(S(=O)(=O)c1ccccc1C)C2 ?
Result :: 5%

Query :: Same read-out for COc1ccc(C(NCc2cccc(C#N)c2)C2CC2)cc1 (stereo unspecified) ?
Result :: 3.8%

###

# system-name: Histidine--tRNA ligase (Leishmania infantum) (UniProt A4I591)
# Sequence (A4I591 as listed by the source): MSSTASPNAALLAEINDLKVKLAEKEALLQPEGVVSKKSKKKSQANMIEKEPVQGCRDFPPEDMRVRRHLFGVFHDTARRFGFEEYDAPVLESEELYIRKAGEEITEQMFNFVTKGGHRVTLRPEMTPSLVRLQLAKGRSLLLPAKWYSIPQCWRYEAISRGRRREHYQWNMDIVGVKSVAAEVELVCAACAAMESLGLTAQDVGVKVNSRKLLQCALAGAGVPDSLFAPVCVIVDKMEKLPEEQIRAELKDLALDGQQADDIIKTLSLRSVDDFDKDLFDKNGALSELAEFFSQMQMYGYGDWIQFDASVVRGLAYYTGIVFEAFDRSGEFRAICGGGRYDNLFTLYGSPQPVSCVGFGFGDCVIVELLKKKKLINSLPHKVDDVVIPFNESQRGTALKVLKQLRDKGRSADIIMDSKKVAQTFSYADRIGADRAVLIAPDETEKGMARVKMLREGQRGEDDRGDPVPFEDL
# experiment-description: Leishmania infantum Histidine tRNA synthetase (LdHisRS)
# Format: functional
# Parameters: scale not given: in the data most compounds retested in dose-response had high values
# details: 30 µM
Hit rate of the full screen: of about 69,000 compounds, about 420 (0.61%) showed an effect of 50% or more. This is one part of a sample in which strong results are shown more often than they occur.
experimental-readout: Percent Effect (%)
Write the number in % without appending the unit.

Some molecules with known Percent Effect results, for comparison:
O=C1CC(c2ccccc2C(F)(F)F)c2sc(N3CCOCC3)nc2N1 (configuration not stated)    5
c1ccc(-c2cc(CN3C[C@@H]4CC[C@H](C3)N(CC3CCC3)C4)on2)cc1    51.7

Query :: Query (molecule): O=C1CC(c2ccccc2Br)c2sc(N3CCOCC3)nc2N1 (configuration not stated) ; field requested: Percent Effect
Result :: 87.5

Query :: Same read-out for Cn1ncc2c1NC(=O)CC2c1ccccc1Br (configuration not stated) ?
Result :: -2.5

Query :: Same read-out for c1ccc(-c2cc(CN3CCCC(Cn4cncn4)C3)on2)cc1 (configuration not stated) ?
Result :: 8.55

Query :: Same read-out for O=C(Cn1ccc2sccc2c1=O)NCc1ccc(F)cc1 ?
Result :: 5.43

Query :: Same read-out for COc1cccc(C2CC(=O)Nc3nc(N)sc32)c1OC (configuration not stated) ?
Result :: 91.4

###

# system-name: Histidine--tRNA ligase (Leishmania infantum) (UniProt A4I591)
# experiment-description: Leishmania infantum Histidine tRNA synthetase (LdHisRS)
# Format: functional
# Design: scale not given: in the data most compounds retested in dose-response had high values
# details: 30 µM
Among all 69,000 compounds or so, about 420 (0.61%) showed an effect of 50% or more. This is one part of a sample in which strong results are shown more often than they occur.
Sorting guide: entries reporting Percent Effect beneath 20% go in the yes pile, the rest go in the no pile.

Check out these entries, answers already filled in.
CC(=O)Nc1ccc2nc(CN(C)Cc3noc(C)n3)ccc2c1    yes
CC(C)CS(=O)(=O)N1C[C@H]2C[C@H](C(=O)N3CCOCC3)[C@@H](C1)O2    yes

Please look at the following compound next.
Query :: Does the reported Percent Effect of the following compound sit strictly below 20%? O=C(c1cscn1)N1C[C@H]2CCCC(OCc3cccnc3)[C@H]2C1 (stereo partly specified)
Result :: yes

###

# system-name: Histidine--tRNA ligase (Leishmania infantum) (UniProt A4I591)
# experiment-description: Leishmania infantum Histidine tRNA synthetase (LdHisRS)
# Type: functional
# Parameters: scale not given: in the data most compounds retested in dose-response had high values
# details: 30 µM
The whole screen tested about 69,000 compounds, of which about 420 (0.61%) showed an effect of 50% or more. The entries come from a sample that favours strong results as a whole.
Classify on Percent Effect using low = under 10%, intermediate = from 10% up to 20%, high = 20% and over

Check out these entries, answers already filled in.
CN1CCCCC1c1cncc(N2CCC(O)CC2)n1 (stereo unspecified)    intermediate
COC[C@]12COC[C@H]1CN(S(=O)(=O)c1cccnc1)C2    intermediate
Cc1cc(N2CCC(O)CC2)nc(C2CCCN2C)n1 (stereo unspecified)    high
Cc1cc(C)cc(OCCC(=O)NC2CC(=O)N(C)C2)c1 (stereo unspecified)    high
c1cnn(CCCO[C@@H]2CC[C@H]3[C@H]2OCCN3CC2CCOCC2)c1    intermediate

Query :: // return the class label for CCC(C)NS(=O)(=O)c1ccc(/C=C\c2onc(C)c2NC(C)=O)cc1 (stereo unspecified)
Result :: low

Query :: Same read-out for COc1ccc(CN2C[C@@H]3COC[C@H](N4CCN(C)CC4)[C@@H]3C2)cc1 ?
Result :: low

Query :: Same read-out for Cc1cc(CC(C)Nc2nc(-c3cccnc3)nc3c2CNC3)[nH]n1 (stereo unspecified) ?
Result :: high

###

# system-name: Histidine--tRNA ligase (Leishmania infantum)
# experiment-description: Leishmania infantum Histidine tRNA synthetase (LdHisRS)
# Assay type: functional
# Set-up: scale not given: in the data most compounds retested in dose-response had high values
# details: 30 µM
Out of some 69,000 compounds screened, about 420 (0.61%) showed an effect of 50% or more. This excerpt belongs to a sample that is enriched for strong results.
experimental-readout: Percent Effect (%)
Write the number in % without appending the unit.

Some compounds with known Percent Effect results, for comparison:
O=C(c1cocn1)N1C[C@@H]2CN(CC3CC3)CCO[C@@H]2C1    7.56
Cc1cc2nc(SCC(=O)N3CCCC3)n(-c3ccccc3)c(=O)c2[nH]1    51.4

Query :: Query (compound): CNC(=O)[C@@H]1CC[C@@H]2[C@@H](CCN2Cc2cn(C)c3ccccc23)O1 ; field requested: Percent Effect
Result :: 13.2

Query :: Same read-out for COCC(=O)NC[C@@]1(COc2cnccn2)C[C@@H](O)[C@@H](O)C1 ?
Result :: 10.8

Query :: Same read-out for CCN1C[C@H]2[C@@H](C1)N(S(=O)(=O)c1ccccc1)CC[C@H]2OC ?
Result :: 24

Query :: Same read-out for O=C1O[C@@H]2CN(Cc3ccncc3)C[C@@H]2N1CCCN1CCOCC1 ?
Result :: -6.67

Query :: Same read-out for CC(C)NC(=O)N1CCC(c2nnc3n2CCNC3)CC1 ?
Result :: 74.5

Query :: Same read-out for O=C(NC1CCCC1)N1C[C@H]2CN(c3ccncc3)C[C@@]2(C(=O)O)C1 ?
Result :: -1.96

Query :: Same read-out for COC(=O)CN1N=C(C(=O)N2CCCC2)S(=O)(=O)c2ccccc21 ?
Result :: 12.2

Query :: Same read-out for O=C(c1cc(-c2ccco2)cs1)N1CCOCC1 ?
Result :: 25

Query :: Same read-out for O=C(c1ccco1)N1CC[C@@H]2O[C@@H](COCCN3CCCC3)CC[C@@H]21 ?
Result :: 4.59

Query :: Same read-out for CC(C)NC(=O)N1CCCCC1c1nnc2n1CCNC2 (stereo not drawn) ?
Result :: 30.3

Query :: Same read-out for Cc1cc2nc(SCC(=O)N3CCCC3)n(C)c(=O)c2[nH]1 ?
Result :: 5.26

Query :: Same read-out for CC(=O)N(Cc1noc(C)n1)C1CCN(Cc2cccc(C#N)c2)C1 (stereo not drawn) ?
Result :: 63.2
